Species on record: Homo sapiens
Experiment: To identify inhibition of the IFN signalling (Jak-Stat) pathway via expression of an eGFP reporter gene under the control of an IFN-stimulated response element (ISRE) containing MxA promoter.
Format: functional
Design: scale not given: direction of the effect not stated beside the values
Conditions: 30 µM
READOUT: Percent Effect (%)
Number in %, nothing else.

Below, 5 molecules whose answers are already recorded.
CCn1cnnc1CNC(=O)N1CCN(c2cccs2)CC1 : 7.4
O=C(Cc1ccccc1F)N1C[C@@H]2COC[C@]2(COc2cccnc2)C1 : -1.09
CN(C)C(=O)N1C[C@@H]2COC[C@]2(CNS(C)(=O)=O)C1 : -0.0949
O=C(NCC1CC1)Nc1cnc2cc(Cl)ccc2c1O : 8.61
CC(C)(C)SCCCC(=O)N1CCC(Nc2cccnn2)CC1 : 8.77

// below: Percent Effect requested for another molecule
Entry under test: CC(=O)NC(C)CC(=O)NCc1cccnc1Oc1ccccc1C (stereo unspecified) . Its Percent Effect was -9.66
